Molecular target: GHS-R 1A (Homo sapiens, UniProt Q92847)
Construct: expressed in transfected cells; host or cells: BHK cells, stably transfected
Sequence (Q92847 whole entry): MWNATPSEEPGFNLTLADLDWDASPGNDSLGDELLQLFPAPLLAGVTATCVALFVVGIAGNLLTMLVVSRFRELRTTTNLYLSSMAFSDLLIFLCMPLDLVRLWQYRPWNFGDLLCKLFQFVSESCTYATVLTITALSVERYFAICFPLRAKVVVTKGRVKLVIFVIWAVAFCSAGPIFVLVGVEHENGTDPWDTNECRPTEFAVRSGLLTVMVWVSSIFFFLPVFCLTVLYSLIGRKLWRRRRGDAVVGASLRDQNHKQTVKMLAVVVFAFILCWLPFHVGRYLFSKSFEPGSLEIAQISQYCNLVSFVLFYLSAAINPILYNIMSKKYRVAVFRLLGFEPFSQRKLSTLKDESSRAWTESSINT
Experiment: Receptor binding assay, membranes of BHK/GHS-R 1A cells

Molecule	Ki [pM]
CN(C)N(C)C(=O)C1(Cc2ccccc2)CCCN(C(=O)[C@@H](Cc2c[nH]c3ccccc23)NC(=O)C(C)(C)N)C1 (stereo partly shown) [NNC 26-1291]	400
